B1: Hairpin Ribozyme (parent)
chain: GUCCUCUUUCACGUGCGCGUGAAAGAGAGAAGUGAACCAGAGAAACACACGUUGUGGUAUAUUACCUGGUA

- Variants of: B1
- experiment: self-cleavage, relative activity (ratio to wild type); higher = more cleavage; co-transcriptional
quantity-name: self-cleavage
Response field accepts a number only; no unit should be typed.

# query: self-cleavage of entry C3A U70A
0.377

Bench note: what self-cleavage did A23G U70C show?
0.934

For the variant C16G A35G , what self-cleavage is on record?
0.797

Quick check: self-cleavage of C12U G68U ?
0.27

Requested field: self-cleavage. Item: G1C A61U
0.126

Recorded self-cleavage for G17A U52C , please?
1.11

Any idea what its self-cleavage is? The variant is U20A U33C
0.186

Quick one: self-cleavage for A35C C65G ?
0.387

Recorded self-cleavage for C4A A39G , please?
0.134

Query: self-cleavage; subject: A41U A71G
1.14

Which self-cleavage is listed for U7A C48A ?
0.165

Any idea what its self-cleavage is? The variant is G1C A31G
0.187

What does the data say about its self-cleavage? Entry: C12A A24G
0.676

Dear colleague, I am looking for the recorded self-cleavage of the following variant: U7G G51C
0.908

Could you share which self-cleavage value was measured for A35G A44U ?
0.14

Any idea what self-cleavage was measured for A30U C38A ?
0.0692

Consider the variant shown here: A11G A59C What is its recorded self-cleavage?
0.17

What value of self-cleavage has been reported for the following variant? A23G A30G
0.211

# input variant: C18A A45C ; wanted: its self-cleavage
0.173

Reported self-cleavage, variant G54A G68U : ____
0.227

Which self-cleavage is listed for A22U G69U ?
0.259

// query self-cleavage value for entry A23C A45G
0.173

// self-cleavage lookup, key: U5C C65G
0.0463

Any idea what its self-cleavage is? The variant is C4G U55C
0.122

Requested field: self-cleavage. Item: C10A A39C
0.463

Requested field: self-cleavage. Item: A26U C37U
0.466

Query: self-cleavage; subject: C3U U70A
0.305

Record request: self-cleavage value, item C4A U14A
0.191

Query (variant): C16A A43C ; field requested: self-cleavage
0.116

Please give the measured self-cleavage for this variant: G21C A22C
0.61

Reported self-cleavage for A11C U52G : what is it?
0.857

I have this variant here, U14A G42U , and I need its recorded self-cleavage.
0.308

What does the data say about its self-cleavage? Entry: U8A G34A
0.98

Look at this variant and give its reported self-cleavage. A36U U60A
0.487

What value of measured self-cleavage is listed for C48G G56U ?
0.193

Looking for the measured self-cleavage of G15U A41U , can you help?
1.41

Need self-cleavage, item A45C C50U
0.0931

Would you kindly share the measured self-cleavage for G34C C37U ?
1.34

Which measured self-cleavage value corresponds to C4A C12A ?
0.187

Consider the variant shown here: A49U G57C What is its recorded self-cleavage?
0.0724

Request the reported self-cleavage associated with A24G U70C
0.913

Query (variant): A22C A28U ; field requested: self-cleavage
0.504

# self-cleavage lookup, item U7C A30U
0.257

Param item = G17A A28U ; retrieve measured self-cleavage.
0.808

What measured self-cleavage goes with U20G A23G ?
0.98

I would be grateful if you could share the reported self-cleavage for G25C A64G .
0.4
